Measured values drawn from the supplement of paper PMC10065799 for this set.

Target: EPHB2 (UniProt P29323)
Sequence (P29323 whole entry, looked up): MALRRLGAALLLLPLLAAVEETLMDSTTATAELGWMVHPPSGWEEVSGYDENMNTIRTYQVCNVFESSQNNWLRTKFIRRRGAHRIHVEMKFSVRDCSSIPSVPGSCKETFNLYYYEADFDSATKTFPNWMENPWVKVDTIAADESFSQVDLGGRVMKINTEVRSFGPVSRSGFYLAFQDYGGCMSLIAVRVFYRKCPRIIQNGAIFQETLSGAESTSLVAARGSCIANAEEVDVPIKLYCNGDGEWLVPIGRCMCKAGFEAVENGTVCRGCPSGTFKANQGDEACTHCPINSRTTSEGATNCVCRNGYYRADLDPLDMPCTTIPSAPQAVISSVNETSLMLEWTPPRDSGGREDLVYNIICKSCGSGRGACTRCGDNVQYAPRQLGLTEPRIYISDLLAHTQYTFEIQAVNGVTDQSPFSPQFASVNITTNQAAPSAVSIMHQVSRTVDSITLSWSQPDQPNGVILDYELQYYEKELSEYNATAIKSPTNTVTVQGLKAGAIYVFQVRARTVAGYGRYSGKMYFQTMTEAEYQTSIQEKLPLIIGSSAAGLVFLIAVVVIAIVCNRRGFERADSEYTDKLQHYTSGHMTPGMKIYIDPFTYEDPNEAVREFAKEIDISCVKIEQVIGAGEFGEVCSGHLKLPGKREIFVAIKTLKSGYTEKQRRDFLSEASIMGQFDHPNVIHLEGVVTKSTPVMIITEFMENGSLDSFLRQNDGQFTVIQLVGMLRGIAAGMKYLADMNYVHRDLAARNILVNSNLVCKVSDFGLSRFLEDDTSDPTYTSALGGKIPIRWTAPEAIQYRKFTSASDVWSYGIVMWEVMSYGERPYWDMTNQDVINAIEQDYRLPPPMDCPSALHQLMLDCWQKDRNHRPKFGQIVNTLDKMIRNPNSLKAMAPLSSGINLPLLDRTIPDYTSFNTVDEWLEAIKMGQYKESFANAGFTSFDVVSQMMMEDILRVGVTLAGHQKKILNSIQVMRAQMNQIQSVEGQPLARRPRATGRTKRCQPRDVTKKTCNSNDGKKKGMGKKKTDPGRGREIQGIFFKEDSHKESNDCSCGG
Test: phosphorylation enrichment, bacterial display (enrichment ratio); higher = better substrate or ligand; peptides without Tyr show the background;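 further: 11-residue human phosphosite peptides and single-mutation variants displayed on the E. coli surface, counted by deep sequencing, each peptide's frequency after selection divided by its frequency in the unselected input library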;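 further: frequency after pTyr selection over input frequency; kinase dosed for 20-30% of maximal phosphorylation in three min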
PROPERTY_MEASURED: phosphorylation enrichment

SVTCTYSPALT [TP53_Y126_N131T]	0.615

Please look up its phosphorylation enrichment: YTGSTYRVGDT [FN1_Y106_N104S]
0.453

Any idea what its phosphorylation enrichment is? The sequence is SGPRRYTVAAL [TTR_Y125_I127V]
0.42

Recorded phosphorylation enrichment of GDYYRSLAEVA [YWHAG_Y133_Y133S] , please.
1.09

# get_value(readout='phosphorylation enrichment', item= FSPGSYERETF [NF1_Y2192] )
0.548

phosphorylation enrichment for LKVDVYGRSHK [FUT3_Y222] ?
0.778

Please report the recorded phosphorylation enrichment for LQTFHYHGHSM [PDHA1_Y289_R288H_YF] .
0.448

###

Target: Fyn (UniProt P06241)
Sequence (P06241 whole entry, looked up): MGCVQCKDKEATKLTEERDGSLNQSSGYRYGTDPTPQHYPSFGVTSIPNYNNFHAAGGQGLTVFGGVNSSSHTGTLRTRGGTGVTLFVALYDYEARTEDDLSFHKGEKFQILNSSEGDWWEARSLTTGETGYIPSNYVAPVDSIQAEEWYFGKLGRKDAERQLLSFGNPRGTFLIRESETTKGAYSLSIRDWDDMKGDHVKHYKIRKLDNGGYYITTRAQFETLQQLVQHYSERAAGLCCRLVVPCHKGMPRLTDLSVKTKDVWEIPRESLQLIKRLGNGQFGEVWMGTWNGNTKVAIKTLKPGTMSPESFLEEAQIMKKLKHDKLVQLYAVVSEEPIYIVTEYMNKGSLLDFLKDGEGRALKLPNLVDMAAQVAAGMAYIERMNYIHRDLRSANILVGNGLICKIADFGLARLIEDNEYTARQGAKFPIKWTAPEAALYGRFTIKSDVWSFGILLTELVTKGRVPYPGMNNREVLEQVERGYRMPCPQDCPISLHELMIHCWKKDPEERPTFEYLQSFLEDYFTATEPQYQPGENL
Assay: phosphorylation enrichment, bacterial display (enrichment ratio); higher = better substrate or ligand; peptides without Tyr show the background
Rule: phosphorylation enrichment under 0.4 gives f, otherwise t.

QNVADYMRYLM [RPL5_Y207]	t
RRERDYTNLPS [CSF1R_Y923]	t
LDPMVYMNDKS [PTK2B_Y834]	t
KLNNEYLELNF [MME_Y497_YF]	t

Please tell me: is the sequence PTEAQYRFIYM [PTPN11_Y511_Q506P] at or over 0.4 in terms of phosphorylation enrichment?
t

Determine whether measured phosphorylation enrichment meets or exceeds 0.4 for NPQKSYFICLY [WAS_Y83_R86C]
t

###

Molecular target: EPHB1 (UniProt P54762)
Sequence (P54762 whole entry, looked up): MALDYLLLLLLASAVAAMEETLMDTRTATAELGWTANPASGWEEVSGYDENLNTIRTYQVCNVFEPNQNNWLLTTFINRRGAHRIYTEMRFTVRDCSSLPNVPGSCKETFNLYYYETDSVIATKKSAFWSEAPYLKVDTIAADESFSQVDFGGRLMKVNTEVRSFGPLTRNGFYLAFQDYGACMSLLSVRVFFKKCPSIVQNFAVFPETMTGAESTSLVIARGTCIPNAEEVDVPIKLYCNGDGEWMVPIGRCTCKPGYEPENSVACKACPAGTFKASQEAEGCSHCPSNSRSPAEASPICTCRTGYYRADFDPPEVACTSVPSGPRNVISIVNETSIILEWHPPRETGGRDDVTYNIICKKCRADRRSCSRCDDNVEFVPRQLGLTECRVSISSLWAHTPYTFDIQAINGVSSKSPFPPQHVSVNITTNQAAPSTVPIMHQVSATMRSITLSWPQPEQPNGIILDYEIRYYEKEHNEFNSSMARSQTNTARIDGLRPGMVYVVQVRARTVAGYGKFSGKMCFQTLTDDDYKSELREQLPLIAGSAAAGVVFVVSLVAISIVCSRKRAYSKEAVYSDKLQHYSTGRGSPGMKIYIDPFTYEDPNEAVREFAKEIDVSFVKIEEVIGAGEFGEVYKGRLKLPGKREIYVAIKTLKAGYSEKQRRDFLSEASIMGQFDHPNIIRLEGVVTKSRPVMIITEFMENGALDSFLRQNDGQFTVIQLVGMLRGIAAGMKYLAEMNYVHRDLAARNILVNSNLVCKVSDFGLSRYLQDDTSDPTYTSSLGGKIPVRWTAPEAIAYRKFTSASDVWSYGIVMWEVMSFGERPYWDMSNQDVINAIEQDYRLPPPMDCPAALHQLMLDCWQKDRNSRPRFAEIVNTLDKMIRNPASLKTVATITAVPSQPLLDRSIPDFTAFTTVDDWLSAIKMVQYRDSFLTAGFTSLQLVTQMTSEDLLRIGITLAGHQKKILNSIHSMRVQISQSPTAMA
Experiment: phosphorylation enrichment, bacterial display (enrichment ratio); higher = better substrate or ligand; peptides without Tyr show the background
Parameter threshold = 0.5. Response is true (1) when phosphorylation enrichment meets or exceeds it, else false (0).

Below, 5 sequences whose answers are already recorded.
NREGVYTDFAP [TGFBI_Y537_V539D]	true (1)
GGQVFYNSEYG [FLT4_Y1333]	false (0)
LECEWYKNGVK [TTN_Y2112_P2107L]	true (1)
SSPMKYQQNVS [EGFEM1P_Y160]	false (0)
GASWRYRSGVS [NEU1_Y242_G243R]	false (0)

phosphorylation enrichment >= 0.5 for SQSPHYFRSGQ [GPATCH8_Y1038_R1043Q] ?
false (0)

Could you verify whether the entry NSFKFYMSDDI [ATRX_Y204_C200S_YF] shows phosphorylation enrichment of no less than 0.5?
true (1)

Can LRVGFYESDVM [A2M_Y708] be said to have phosphorylation enrichment at or above 0.5?
true (1)

hey, is phosphorylation enrichment for this one >= 0.5? FLEEEYVKAVG [TF_Y674_G671E_YF]
true (1)

Please check the record GSIQQYIFKQE [PRG4_Y1271_YF] and state if its phosphorylation enrichment is at or above 0.5.
false (0)

Please check the record ETKKQYDSFTY [TMED3_Y85] and state if its phosphorylation enrichment is at or above 0.5.
false (0)

Answer whether phosphorylation enrichment of QRDSSYYWEIE [RAF1_Y340] is greater than or equal to 0.5.
true (1)

hey, is phosphorylation enrichment for this one >= 0.5? TQPSPYAVYLF [RPGRIP1_Y823_R827L]
true (1)

###

Biological target: Hck (UniProt P08631)
Sequence (P08631 whole entry, looked up): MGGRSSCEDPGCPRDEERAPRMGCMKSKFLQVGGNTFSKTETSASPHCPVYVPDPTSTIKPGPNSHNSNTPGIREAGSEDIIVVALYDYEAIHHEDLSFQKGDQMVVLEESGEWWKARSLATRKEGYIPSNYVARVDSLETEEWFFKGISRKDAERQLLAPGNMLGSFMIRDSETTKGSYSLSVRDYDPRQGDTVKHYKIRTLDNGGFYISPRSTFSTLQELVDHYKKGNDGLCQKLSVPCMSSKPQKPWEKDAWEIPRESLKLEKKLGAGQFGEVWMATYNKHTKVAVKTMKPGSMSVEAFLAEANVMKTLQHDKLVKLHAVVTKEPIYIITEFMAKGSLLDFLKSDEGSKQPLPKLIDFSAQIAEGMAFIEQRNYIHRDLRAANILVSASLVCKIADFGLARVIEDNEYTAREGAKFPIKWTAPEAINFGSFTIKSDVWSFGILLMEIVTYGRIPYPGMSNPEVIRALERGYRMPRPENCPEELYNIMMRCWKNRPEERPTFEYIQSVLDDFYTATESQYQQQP
Assay: phosphorylation enrichment, bacterial display (enrichment ratio); higher = better substrate or ligand; peptides without Tyr show the background
PROPERTY_MEASURED: phosphorylation enrichment
Lab note: jot down the number only; don't add units.

LAETSYVKVLE [MAGEA1_Y276]	0.473

Hi! What's the reported phosphorylation enrichment for LAVVDYIRRQK [ATM_Y1915_M1916I] on Hck (UniProt P08631)?
0.749

Fill in the recorded phosphorylation enrichment for this sequence, with Hck (UniProt P08631) as test system: QSSALYEDRFL [ASS1_Y83_YF]
6.48

Test system Hck (UniProt P08631); read-out phosphorylation enrichment; what value for PLDGEYSTLQI [TP53_Y327_F328S] ?
3.08

Return phosphorylation enrichment measured with Hck (UniProt P08631) given this sequence: QMEKICTQQIQ [CCNB1IP1_Y125_Y125C]
0.409

###

Target: EPHB1 (UniProt P54762)
Assay: phosphorylation enrichment, bacterial display (enrichment ratio); higher = better substrate or ligand; peptides without Tyr show the background
PROPERTY_MEASURED: phosphorylation enrichment
Simply state the number, no unit and no words.

QTWKTYVRQQQ [SFI1_Y164]	0.524
PEPHIYAVADV [MYO9A_Y216_L211P]	1.11
GSRGKYSSGFH [ATM_Y332_R337H]	0.417
QDIMAYRSREV [BCL6_Y157_G159S]	0.456
YRDALYKSMVD [PHEX_Y250_F252S]	0.564

Can you look up the measured phosphorylation enrichment of PLGVLYKVKVF [PTS_Y128_V124L_YF] for me?
0.922

Return reported phosphorylation enrichment; argument: NHQYDYTFHWT [CSNK1A1_Y294_D297H]
3.18

Query (sequence): PMWHPYKADVT [TP53TG5_Y255_V257A] ; field requested: phosphorylation enrichment
0.657

Which value of phosphorylation enrichment has been reported for GVPLGYPIKAS [ELN_Y206_P211S] in the records?
0.327

Bench note: what phosphorylation enrichment did NFATLYLKIFH [PDE6B_Y219_YF] show?
0.604

Give its phosphorylation enrichment value. Item: FIAVGYVDDTQ [HLA-A_Y51]
0.453

So what does the record say about phosphorylation enrichment for SHGKQYRVPSD [HHIPL2_Y395_R394Q] ?
0.35

State the recorded phosphorylation enrichment for this entry: DISEPYEVYRI [IRF8_Y107_K108E]
0.425

Find the recorded phosphorylation enrichment belonging to KIVYVYVKKRS [DNAI2_Y7_E2K] and report it.
0.577

###

This listing pairs sequences with measured phosphorylation enrichment.
Target: Fyn (UniProt P06241)
Test: phosphorylation enrichment, bacterial display (enrichment ratio); higher = better substrate or ligand; peptides without Tyr show the background
Field format: numeric only.

KKFVPYFDLFM [IPO5_Y530_E525K_YF]	0.479
LARDMCDKEFF [MET_Y1230_Y1230C_YF]	0.513
SVVVHYEPPEV [TP53_Y220_P219H]	0.484

Consider the sequence shown here: YSMGCYEISLG [HMGCL_Y198] What is its recorded phosphorylation enrichment?
2.15

Which phosphorylation enrichment value is on record for SQPASYQRRFL [PPIG_Y320_L324F] ?
0.425

Name the recorded phosphorylation enrichment for PRAEWYRDDVL [MYOM2_Y317] .
0.572

Entry under review: KDIENHIQDGK [RAD50_Y964_Y964H] . Reported phosphorylation enrichment?
0.488

What does the data say about its phosphorylation enrichment? Entry: LEIETYRRLLD [KRT12_Y429]
0.468

Quick one: phosphorylation enrichment of SGGSSYGSGGG [KRT1_Y532] ?
0.382

Item under review: PSQRCYVYYYS [PTEN_Y174_R173C] . Reported phosphorylation enrichment?
1.09

###

Target: EPHB1 (UniProt P54762)
Experiment: phosphorylation enrichment, bacterial display (enrichment ratio); higher = better substrate or ligand; peptides without Tyr show the background
Classification field. Basis: phosphorylation enrichment. Definitions: low: < 0.5; mid: ≥ 0.5 and < 0.7; high: ≥ 0.7

Check out these entries, answers already filled in.
LSIQTYSALNF [DES_Y423_P419S]	high
ATLDVYNPFET [SCAMP3_Y41]	mid
LHRHAYPEQQQ [DPPA2_Y127_R131Q]	high
GFEVVYVTEPI [HSP90AB1_Y512_M513V]	low
NYADPYRQLQY [CTNND2_Y503]	high

Consider now this further sequence.
Which class is correct for the following sequence? LRGVIYVILRK [PMP22_Y153_S149R]
mid

###

Target: MERTK (UniProt Q12866)
Sequence (Q12866 whole entry, looked up): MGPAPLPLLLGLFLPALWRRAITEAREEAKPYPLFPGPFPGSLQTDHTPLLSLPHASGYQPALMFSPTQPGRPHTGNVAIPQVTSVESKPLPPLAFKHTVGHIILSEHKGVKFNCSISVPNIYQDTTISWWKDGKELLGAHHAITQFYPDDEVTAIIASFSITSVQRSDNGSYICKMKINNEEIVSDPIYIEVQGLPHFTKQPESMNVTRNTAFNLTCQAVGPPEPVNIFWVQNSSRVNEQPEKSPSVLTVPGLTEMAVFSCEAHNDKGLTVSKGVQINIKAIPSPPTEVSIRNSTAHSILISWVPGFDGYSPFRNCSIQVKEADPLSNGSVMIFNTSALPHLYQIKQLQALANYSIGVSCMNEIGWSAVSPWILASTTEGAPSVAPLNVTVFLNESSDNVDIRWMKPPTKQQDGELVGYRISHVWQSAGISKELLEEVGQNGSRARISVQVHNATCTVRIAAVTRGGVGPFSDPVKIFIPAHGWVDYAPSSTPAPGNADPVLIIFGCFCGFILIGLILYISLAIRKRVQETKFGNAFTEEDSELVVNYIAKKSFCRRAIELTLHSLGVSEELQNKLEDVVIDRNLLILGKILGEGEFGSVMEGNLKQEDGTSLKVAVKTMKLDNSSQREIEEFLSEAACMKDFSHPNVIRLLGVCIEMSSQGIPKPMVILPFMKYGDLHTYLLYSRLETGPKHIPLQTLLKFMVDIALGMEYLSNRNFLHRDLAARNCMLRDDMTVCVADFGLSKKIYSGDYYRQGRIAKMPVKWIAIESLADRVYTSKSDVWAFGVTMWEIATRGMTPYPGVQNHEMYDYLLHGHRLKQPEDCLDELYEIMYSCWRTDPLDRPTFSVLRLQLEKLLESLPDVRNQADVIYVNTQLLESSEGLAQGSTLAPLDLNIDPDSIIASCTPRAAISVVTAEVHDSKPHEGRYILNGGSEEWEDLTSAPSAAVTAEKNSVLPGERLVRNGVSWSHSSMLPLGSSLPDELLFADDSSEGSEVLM
Test: phosphorylation enrichment, bacterial display (enrichment ratio); higher = better substrate or ligand; peptides without Tyr show the background
PROPERTY_MEASURED: phosphorylation enrichment
Form field (numeric): enter value without unit.

Illustrative cases are given below, each with its answer.
GYAGKYIAMVM [CYP19A1_Y441_C437Y]	0.479
RGFDTYFGFLL [ARSB_Y165_YF]	5.24
KASGKYYAMKI [AKT3_Y173]	0.455
WNEVGYDDIGG [VCP_Y203_L198W]	0.406
CTTSHYNFMCN [TP53_Y234_I232S_YF]	0.455

# get_value(readout='phosphorylation enrichment', item= LVRPPYSYLAL [FOXI1_Y126_S129L] )
2.78

Sample QGCGIYKDFFR [PLA2G2D_Y82_S80G_YF] — what was its phosphorylation enrichment?
0.534

Name the reported phosphorylation enrichment value associated with the sequence YSNVLYRPRGA [TMIGD2_Y197]
2.23

Look up phosphorylation enrichment: LKALKYKSMKI [ITGA11_Y1098]
0.336
